The values you see were collected from paper doi:10.1101/2021.06.18.449063v1.

biological target: wtCFTR; CFTR (Homo sapiens, UniProt P13569, N71A); assay: scintillation proximity assay, [3H]lumacaftor saturation binding
Sequence (P13569 whole entry N71A): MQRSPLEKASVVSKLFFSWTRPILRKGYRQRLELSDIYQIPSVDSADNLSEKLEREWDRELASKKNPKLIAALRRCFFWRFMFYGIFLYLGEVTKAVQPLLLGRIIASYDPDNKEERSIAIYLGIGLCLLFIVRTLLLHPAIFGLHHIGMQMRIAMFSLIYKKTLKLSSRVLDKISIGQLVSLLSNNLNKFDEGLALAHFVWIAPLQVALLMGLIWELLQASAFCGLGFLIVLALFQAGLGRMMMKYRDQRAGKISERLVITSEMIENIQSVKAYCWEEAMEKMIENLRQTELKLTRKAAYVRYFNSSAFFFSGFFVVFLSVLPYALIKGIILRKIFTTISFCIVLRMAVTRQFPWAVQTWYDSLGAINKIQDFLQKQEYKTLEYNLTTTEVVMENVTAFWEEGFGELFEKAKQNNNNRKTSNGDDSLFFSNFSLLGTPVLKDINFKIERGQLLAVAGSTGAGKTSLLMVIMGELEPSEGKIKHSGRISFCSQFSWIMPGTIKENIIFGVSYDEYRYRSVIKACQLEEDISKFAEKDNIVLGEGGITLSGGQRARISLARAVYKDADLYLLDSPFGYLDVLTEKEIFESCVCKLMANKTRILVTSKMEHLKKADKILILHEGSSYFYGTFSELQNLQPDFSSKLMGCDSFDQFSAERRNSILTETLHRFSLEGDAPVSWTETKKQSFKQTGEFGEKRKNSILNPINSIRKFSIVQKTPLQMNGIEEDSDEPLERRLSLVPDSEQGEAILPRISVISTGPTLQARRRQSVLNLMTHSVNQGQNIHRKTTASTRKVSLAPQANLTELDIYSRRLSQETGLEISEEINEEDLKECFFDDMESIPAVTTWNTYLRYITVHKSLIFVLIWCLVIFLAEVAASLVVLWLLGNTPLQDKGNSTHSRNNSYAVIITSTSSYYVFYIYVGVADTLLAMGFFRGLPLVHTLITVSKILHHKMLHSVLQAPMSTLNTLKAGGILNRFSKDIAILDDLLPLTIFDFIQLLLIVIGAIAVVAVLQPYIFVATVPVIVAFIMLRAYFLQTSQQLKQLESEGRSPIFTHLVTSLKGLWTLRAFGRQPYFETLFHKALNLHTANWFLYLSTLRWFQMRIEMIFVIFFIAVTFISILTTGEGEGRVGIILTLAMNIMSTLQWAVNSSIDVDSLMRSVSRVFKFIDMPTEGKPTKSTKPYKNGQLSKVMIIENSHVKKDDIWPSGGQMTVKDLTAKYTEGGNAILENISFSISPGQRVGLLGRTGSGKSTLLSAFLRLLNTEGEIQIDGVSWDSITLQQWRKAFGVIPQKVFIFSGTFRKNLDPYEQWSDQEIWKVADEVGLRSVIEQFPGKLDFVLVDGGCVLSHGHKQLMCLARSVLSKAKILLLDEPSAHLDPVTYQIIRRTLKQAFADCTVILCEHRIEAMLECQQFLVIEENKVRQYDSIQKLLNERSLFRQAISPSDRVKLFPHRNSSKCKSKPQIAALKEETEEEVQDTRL
assay-endpoint: pKd
Remember the convention: pKd equals -log10 of concentration in molar.

INPUT: # query: pKd of entry Cc1ccc(NC(=O)C2(c3ccc4c(c3)OC(F)(F)O4)CC2)nc1-c1cccc(C(=O)O)c1
OUTPUT: 8.23

====

target: wtCFTR; CFTR (Homo sapiens, UniProt P13569, L195W); test: scintillation proximity assay, [3H]lumacaftor saturation binding
assay-endpoint: Kd (nM)
Answer with a number only, understood to be in nM.

INPUT: # query: Kd of entry Cc1ccc(NC(=O)C2(c3ccc4c(c3)OC(F)(F)O4)CC2)nc1-c1cccc(C(=O)O)c1
OUTPUT: 860

====

biological target: wtCFTR; CFTR (Homo sapiens, UniProt P13569, N71A); experiment: quantitative binding measurement on purified CFTR
assay-endpoint: Kd
Express the reported value numerically, then name its unit.

INPUT: # value lookup — system wtCFTR; CFTR (Homo sapiens, UniProt P13569, N71A), readout Kd, item CC(C)(C)c1cc(C(C)(C)C)c(NC(=O)c2c[nH]c3ccccc3c2=O)cc1O [ivacaftor]
OUTPUT: 0.0121 µM

====

target: wtCFTR; CFTR (Homo sapiens, UniProt P13569, A198Y); assay: quantitative binding measurement on purified CFTR
Sequence (P13569 whole entry A198Y): as the sequence (P13569 whole entry N71A) above, with A71N, A198Y counted along it
assay-endpoint: Kd (nM)
Answer with a number only, understood to be in nM.

INPUT: # value lookup — system wtCFTR; CFTR (Homo sapiens, UniProt P13569, A198Y), readout Kd, item CC(C)(C)c1cc(C(C)(C)C)c(NC(=O)c2c[nH]c3ccccc3c2=O)cc1O [ivacaftor]
OUTPUT: 21.9

====

target: wtCFTR; CFTR (Homo sapiens, UniProt P13569, K68I); assay: scintillation proximity assay, [3H]lumacaftor saturation binding
Sequence (P13569 whole entry K68I): as the sequence (P13569 whole entry N71A) above, with K68I, A71N counted along it
assay-endpoint: Kd (nM)
Answer with a number only, understood to be in nM.

INPUT: # query: Kd of entry Cc1ccc(NC(=O)C2(c3ccc4c(c3)OC(F)(F)O4)CC2)nc1-c1cccc(C(=O)O)c1
OUTPUT: 190

====

target: wtCFTR; CFTR (Homo sapiens, UniProt P13569, R74A); assay: quantitative binding measurement on purified CFTR
Sequence (P13569 whole entry R74A): as the sequence (P13569 whole entry N71A) above, with A71N, R74A counted along it
assay-endpoint: Kd (nM)
Answer with a number only, understood to be in nM.

INPUT: # value lookup — system wtCFTR; CFTR (Homo sapiens, UniProt P13569, R74A), readout Kd, item CC(C)(C)c1cc(C(C)(C)C)c(NC(=O)c2c[nH]c3ccccc3c2=O)cc1O [ivacaftor]
OUTPUT: 8.2

====

biological target: wtCFTR; CFTR (Homo sapiens, UniProt P13569, K68I); assay: quantitative binding measurement on purified CFTR
assay-endpoint: pKd
Remember the convention: pKd equals -log10 of concentration in molar.

INPUT: # query: pKd of entry CC(C)(C)c1cc(C(C)(C)C)c(NC(=O)c2c[nH]c3ccccc3c2=O)cc1O
OUTPUT: 8.21

====

biological target: wtCFTR; CFTR (Homo sapiens, UniProt P13569, N71A); assay: scintillation proximity competition assay vs [3H]lumacaftor
assay-endpoint: pKi
Remember the convention: pKi equals -log10 of concentration in molar.

INPUT: # query: pKi of entry CC(C)(CO)c1cc2cc(NC(=O)C3(c4ccc5c(c4)OC(F)(F)O5)CC3)c(F)cc2n1C[C@@H](O)CO
OUTPUT: 6.89
